# Tested on: PC-3
# experimentalDetails: growth inhibition of PC-3 prostate cancer cells (calcein fluorescence)
# Assay type: cell-based
# particulars: Homo sapiens, PC-3, 72 h, read-out: PC-3 IC50

| compound | target | IC50, µM |
| --- | --- | --- |
| COC(=O)C1(O)CC2OC1(C)n1c3ccccc3c3c4c(c5c6ccccc6n2c5c31)C(=O)NC4 (stereo not shown) | PC-3 | 3.4 |

====

# target: trkA (Rattus norvegicus, UniProt P35739)
# Construct: are rat pheochromocytoma cells that bear trkA; host or cells: PC12 rat pheochromocytoma cells
# Sequence (P35739 33-799): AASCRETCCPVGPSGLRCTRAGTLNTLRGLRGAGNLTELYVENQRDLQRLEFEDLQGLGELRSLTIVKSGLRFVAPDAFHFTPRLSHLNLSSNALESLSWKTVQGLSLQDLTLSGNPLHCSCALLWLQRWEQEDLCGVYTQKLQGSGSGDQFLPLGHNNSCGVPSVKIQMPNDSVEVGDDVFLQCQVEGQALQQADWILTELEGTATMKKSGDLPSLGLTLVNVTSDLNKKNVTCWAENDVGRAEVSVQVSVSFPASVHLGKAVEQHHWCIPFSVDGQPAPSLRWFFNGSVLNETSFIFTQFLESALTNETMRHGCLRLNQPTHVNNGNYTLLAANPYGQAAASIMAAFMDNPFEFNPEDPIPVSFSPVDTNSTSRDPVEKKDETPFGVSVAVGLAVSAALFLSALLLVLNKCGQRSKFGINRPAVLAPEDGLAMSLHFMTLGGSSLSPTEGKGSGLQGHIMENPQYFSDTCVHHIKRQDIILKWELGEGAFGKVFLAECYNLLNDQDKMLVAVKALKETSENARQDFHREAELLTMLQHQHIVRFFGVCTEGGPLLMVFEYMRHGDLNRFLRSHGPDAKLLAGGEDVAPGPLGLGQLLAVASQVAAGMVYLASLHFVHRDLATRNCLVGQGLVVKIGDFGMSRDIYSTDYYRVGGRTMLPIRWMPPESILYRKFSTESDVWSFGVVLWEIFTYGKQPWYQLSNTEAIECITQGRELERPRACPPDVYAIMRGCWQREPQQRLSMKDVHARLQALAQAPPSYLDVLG
# experimentalDetails: inhibition of NGF-stimulated trk autophosphorylation (tyrosine phosphorylation) in PC12 cells, anti-phosphotyrosine Western blot; further: key: +: Inhibited phosphorylation; -: Did not inhibit phosphorylation
# Assay type: cell-based
# particulars: 100 nM compound, NGF 50 ng/ml
quantityMeasured: trk 100 nM (inhibition of phosphorylation)

| compound | measuredValue |
| --- | --- |
| CC12OC(CC1(O)C=NNC(N)=O)n1c3ccccc3c3c4c(c5c6ccccc6n2c5c31)CNC4=O (stereo not shown) | + |
| CC12OC(CC1(O)C=NNC1=NCCN1)n1c3ccccc3c3c4c(c5c6ccccc6n2c5c31)CNC4=O (stereo not shown) | - |
| CC12OC(CC1(O)CN=[N+]=[N-])n1c3ccccc3c3c4c(c5c6ccccc6n2c5c31)CNC4=O (stereo not shown) | - |
| COC(=O)C1(O)CC2OC1(C)n1c3ccccc3c3c4c(c5c6cc(CSc7nc[nH]n7)ccc6n2c5c31)C(=O)NC4 (stereo not shown) | - |
| C=CCn1c2ccccc2c2c3c(c4c5ccccc5n(CC=C)c4c21)C(=O)NC3 | - |
| CC12OC(CC1(O)C(=O)NO)n1c3ccccc3c3c4c(c5c6ccccc6n2c5c31)CNC4=O (stereo not shown) | + |
| CC12OC(CC1(O)C(=O)N1CCOCC1)n1c3ccccc3c3c4c(c5c6ccccc6n2c5c31)CNC4=O (stereo not shown) | + |
